Origin of the recorded values: ChEMBL document CHEMBL3351381

Can you tell me MIC for the items I'm about to list?
system: Staphylococcus aureus; experiment: Antimicrobial activity against methicillin-sensitive Staphylococcus aureus ATCC 29213 by microbroth dilution method; assay type: functional
Answers are plain numbers, in µg/mL.

Check out these entries, answers already filled in.
stdin: Need MIC of CCCCCCCC1CC(=O)c2c(O)cc(O)cc2O1 (stereo not drawn) , thanks.
stdout: 12.5

stdin: Need MIC of C=CCOc1ccccc1C1CC(=O)c2ccc(O)cc2O1 (stereo not drawn) , thanks.
stdout: 25

stdin: Need MIC of C=CCOc1ccccc1C1CC(=O)c2c(O)cc(O)cc2O1 (stereo not drawn) , thanks.
stdout: 25

stdin: Need MIC of C=CCOc1ccc(/C=C/C(=O)c2ccc(O)cc2O)cc1 , thanks.
stdout: 25

stdin: Need MIC of CCCCCCCCCC1C/C(=N\O)c2c(O)cc(O)cc2O1 (stereo not drawn) , thanks.
stdout: 12.5

Please look at the items below and tell me MIC for each one, in order.
1. CCCC1CC(=O)c2ccc(O)cc2O1 (stereo not drawn)
2. CCCCCCCC1CC(O)c2ccc(O)cc2O1 (stereo not drawn)
3. CC(C)=CCCC(C)CC1CC(=O)c2cc(O)ccc2O1 (stereo not drawn)
4. O=C1CC2(CCCCC2)Oc2cc(O)ccc21
5. C=CCOc1ccccc1/C=C/C(=O)c1ccc(O)cc1O
6. CCCC1CC(O)c2ccc(O)cc2O1 (stereo not drawn)

stdout:
1. 200
2. 12.5
3. 6.25
4. 200
5. 6.25
6. 50

----------
Can you tell me MIC for the items I'm about to list?
system: Staphylococcus aureus; test: Antimicrobial activity against methicillin-sensitive Staphylococcus aureus ATCC 29213 by microbroth dilution method; type: functional
Answers are plain numbers, in µg/mL.

Check out these entries, answers already filled in.
stdin: Need MIC of O=C1CC2(CCCCCC2)Oc2cc(O)ccc21 , thanks.
stdout: 50

stdin: Need MIC of O=C(N[C@H](CO)[C@H](O)c1ccc([N+](=O)[O-])cc1)C(Cl)Cl [CHLORAMPHENICOL] , thanks.
stdout: 3.13

stdin: Need MIC of CCCCCCC1C/C(=N\O)c2c(O)cc(O)cc2O1 (stereo not drawn) , thanks.
stdout: 6.25

Please look at the items below and tell me MIC for each one, in order.
1. CCCCCCCCOc1cc(O)cc(O)c1C(=O)C(C)CC (racemic)
2. CCCCCCCCCC1C/C(=N\OC)c2c(O)cc(O)cc2O1 (stereo not drawn)
3. O=C1CC(C2CCCCC2)Oc2cc(O)cc(O)c21 (stereo not drawn)
4. CC1(C)C2CC=C(C3CC(=O)c4ccc(O)cc4O3)C1C2 (stereo not drawn)

stdout:
1.56
100
25
200

----------
assay: Solubility of the compound in DMEM/FBS medium; format: physicochemical
READOUT TYPE: solubility

Check out these entries, answers already filled in.
stdin: Need solubility of O=C(/C=C/c1ccc(N2CCCCC2)cc1)c1ccc(O)cc1O , thanks.
stdout: 100 µg/mL

stdin: Need solubility of CC1(C)C2CC=C(/C=C/C(=O)c3ccc(O)cc3O)C1C2 (configuration not stated) , thanks.
stdout: > 200 µg/mL

stdin: Need solubility of CC(C)=CCCC(C)CC1CC(=O)c2c(O)cc(O)cc2O1 (configuration not stated) , thanks.
stdout: > 200 µg/mL

stdin: Need solubility of CC(C)=CCCC(C)CC1CC(=O)c2ccc(O)cc2O1 (configuration not stated) , thanks.
stdout: > 200 µg/mL

stdin: Need solubility of CCCCCCCCCC1CC(=O)c2c(O)cc(O)cc2O1 (configuration not stated) , thanks.
stdout: > 200 µg/mL

stdin: Need solubility of C=CCOc1ccccc1/C=C/C(=O)c1ccc(O)cc1O , thanks.
stdout: > 200 µg/mL

stdin: Need solubility of CCCCCCCC1CC(=O)c2c(O)cc(O)cc2O1 (configuration not stated) , thanks.
stdout: 150 µg/mL

stdin: Need solubility of CCCCCCCCOc1ccccc1C1CC(=O)c2ccc(O)cc2O1 (configuration not stated) , thanks.
stdout: > 200 µg/mL

stdin: Need solubility of CCCCCCCCCC1C/C(=N\O)c2c(O)cc(O)cc2O1 (configuration not stated) , thanks.
stdout: 37.5 µg/mL

stdin: Need solubility of CCCCCCOc1ccccc1C1CC(=O)c2ccc(O)cc2O1 (configuration not stated) , thanks.
stdout: > 200 µg/mL

Please look at the items below and tell me solubility for each one, in order.
1. CCCCCCOc1ccccc1/C=C/C(=O)c1ccc(O)cc1O
2. CCCCCCCC1C/C(=N\O)c2c(O)cc(O)cc2O1 (configuration not stated)

stdout:
["> 200 µg/mL", "> 200 µg/mL"]

----------
system: Staphylococcus aureus; experiment: Antimicrobial activity against methicillin-sensitive Staphylococcus aureus ATCC 29213 by microbroth dilution method; format: functional
READOUT TYPE: log10 MIC (log10 of the value in µg/mL)
Values reflect log10 of reported MIC (µg/mL).

Check out these entries, answers already filled in.
stdin: Need log10 MIC of CCCCCCOc1ccccc1/C=C/C(=O)c1ccc(O)cc1O , thanks.
stdout: 0.50

stdin: Need log10 MIC of O=C1CC(C2CCCC2)Oc2cc(O)cc(O)c21 (stereo unspecified) , thanks.
stdout: 2.00

stdin: Need log10 MIC of CCCCCCCCCC1CC(=O)c2c(O)cc(O)cc2O1 (stereo unspecified) , thanks.
stdout: 2.00

stdin: Need log10 MIC of CCCCCCCCCC1CC(O)c2ccc(O)cc2O1 (stereo unspecified) , thanks.
stdout: 1.30

stdin: Need log10 MIC of CC1(C)C2CC=C(C3CC(=O)c4c(O)cc(O)cc4O3)C1C2 (stereo unspecified) , thanks.
stdout: 1.10

Please look at the items below and tell me log10 MIC for each one, in order.
1. CCCCCCCCOc1ccccc1C1CC(=O)c2ccc(O)cc2O1 (stereo unspecified)
2. NC[C@H]1O[C@H](O[C@H]2[C@H](O)[C@@H](O[C@H]3O[C@H](CO)[C@@H](O)[C@H](N)[C@H]3O)[C@H](N)C[C@@H]2N)[C@H](O)[C@@H](O)[C@@H]1O

stdout:
1.10
0.19

Please look at the items below and tell me log10 MIC for each one, in order.
1. C=CCOc1ccccc1/C=C/C(=O)c1ccc(O)cc1
2. CCCC1CC(=O)c2c(O)cc(O)cc2O1 (stereo unspecified)
3. C=CCOc1cc(O)cc(O)c1C(=O)[C@@H](C)CC
4. O=C(/C=C/c1ccc(N2CCCCC2)cc1)c1ccc(O)cc1O
5. CC(C)=CCCC(C)CC1CC(=O)c2ccc(O)cc2O1 (stereo unspecified)
6. O=C1CC(CCc2ccccc2)Oc2cc(O)ccc21 (stereo unspecified)
7. CC1(C)C2CC=C(/C=C/C(=O)c3ccc(O)cc3O)C1C2 (stereo unspecified)

stdout:
1.10
2.00
1.10
0.50
0.80
1.70
0.19

Please look at the items below and tell me log10 MIC for each one, in order.
1. CC1(C)S[C@@H]2[C@H](NC(=O)[C@H](N)c3ccccc3)C(=O)N2[C@H]1C(=O)O
2. CCCCCCCCOc1ccccc1/C=C/C(=O)c1ccc(O)cc1O
3. CCCCCCOc1cc(O)cc(O)c1C(=O)C(C)CC (racemic)
4. CCCC1C/C(=N\O)c2c(O)cc(O)cc2O1 (stereo unspecified)
5. C=CCOc1cccc(/C=C/C(=O)c2ccc(O)cc2O)c1
6. CN[C@H](CC(C)C)C(=O)N[C@H]1C(=O)N[C@@H](CC(N)=O)C(=O)N[C@H]2C(=O)N[C@H]3C(=O)N[C@H](C(=O)N[C@H](C(=O)O)c4cc(O)cc(O)c4-c4cc3ccc4O)[C@H](O)c3ccc(c(Cl)c3)Oc3cc2cc(c3O[C@@H]2O[C@H](CO)[C@@H](O)[C@H](O)[C@H]2O[C@H]2C[C@](C)(N)[C@H](O)[C@H](C)O2)Oc2ccc(cc2Cl)[C@H]1O
7. CCCCCCOc1ccccc1C1CC(=O)c2ccc(O)cc2O1 (stereo unspecified)

stdout:
[0.19, 1.40, 0.19, 2.00, 0.80, -0.41, 0.19]
